system_under_test: human CB1 receptor (Homo sapiens)
measurement_protocol: Human CB1 receptor binding, [3H] CP-55,940 displacement on HEK cell membranes
Design: expressed in transfected cells; host or cells: HEK cells, doxycycline-induced; membrane preparation
condition_set: read-out: CB1 Ki
Sorting guide: entries reporting Ki beneath 20 nM go in the y pile, the rest go in the n pile.

The examples below pair each entry with its known result.
[
  {
    "compound": "CC(C)(C)[C@H](NC(=O)c1nn(Cc2ccc(F)cc2)c2c(Cl)cccc12)C(=O)NCCNS(=O)(=O)C1CC1",
    "answer_label": "y"
  },
  {
    "compound": "CC(C)(C)[C@H](NC(=O)c1nn(Cc2ccc(F)cc2)c2ccccc12)C(=O)NCC(=O)NC(CO)CO",
    "answer_label": "n"
  },
  {
    "compound": "CC(C)(C)C(NC(=O)c1nn(Cc2ccccc2)c2ccc(-c3ncco3)cc12)C(N)=O (centres unmarked)",
    "answer_label": "n"
  },
  {
    "compound": "CN(CCO)C[C@@H](O)CNC(=O)[C@@H](NC(=O)c1nn(Cc2ccc(F)cc2)c2ccccc12)C(C)(C)C",
    "answer_label": "n"
  }
]

Prompt: Strictly below 20 nM in Ki? CC(C)(C)C(NC(=O)c1nn(Cc2ccc(F)cc2)c2ccccc12)C(=O)NCCc1nnc(C2CC2)o1 (centres unmarked)
Response: y

----------
system_under_test: human CB1 receptor (Homo sapiens, UniProt P21554)
Sequence (P21554 whole entry): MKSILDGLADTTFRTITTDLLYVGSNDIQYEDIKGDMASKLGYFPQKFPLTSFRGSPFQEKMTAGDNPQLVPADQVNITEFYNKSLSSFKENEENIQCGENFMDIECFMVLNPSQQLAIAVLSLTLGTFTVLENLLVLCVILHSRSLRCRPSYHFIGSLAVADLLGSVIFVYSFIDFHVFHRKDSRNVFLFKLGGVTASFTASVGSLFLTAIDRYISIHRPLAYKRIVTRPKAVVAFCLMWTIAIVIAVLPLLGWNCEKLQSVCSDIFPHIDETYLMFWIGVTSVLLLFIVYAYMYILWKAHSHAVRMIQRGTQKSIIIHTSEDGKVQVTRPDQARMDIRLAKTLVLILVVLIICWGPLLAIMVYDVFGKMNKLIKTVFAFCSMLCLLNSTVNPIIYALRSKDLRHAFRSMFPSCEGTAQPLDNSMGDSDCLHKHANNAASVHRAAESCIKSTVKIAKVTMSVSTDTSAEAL
measurement_protocol: Human CB1 receptor binding, [3H] CP-55,940 displacement on HEK cell membranes
Parameters: expressed in transfected cells; host or cells: HEK cells, doxycycline-induced; membrane preparation
condition_set: CB1 Ki
Answer each item with its documented log10 of Ki.
Scale: decimal log of Ki, Ki in nM.

[
  {
    "compound": "CC(C)(C)C(NC(=O)c1nn(Cc2ccc(F)cc2)c2ccccc12)C(=O)N1CCC(O)C1 (stereo not shown) [Example 151]",
    "system_under_test": "human CB1 receptor (Homo sapiens, UniProt P21554)",
    "log10 of Ki": 0.21
  },
  {
    "compound": "CC(C)(C)[C@H](NC(=O)c1nn(Cc2ccc(C#N)cc2)c2ccccc12)C(=O)NCC1CC1 [Example 407]",
    "system_under_test": "human CB1 receptor (Homo sapiens, UniProt P21554)",
    "log10 of Ki": 1.56
  },
  {
    "compound": "CC(C)(C)[C@H](NC(=O)c1nn(Cc2ccc(F)cc2)c2ccccc12)C(=O)NCC(=O)NCCO [Example 376]",
    "system_under_test": "human CB1 receptor (Homo sapiens, UniProt P21554)",
    "log10 of Ki": 0.18
  }
]

Batch request: log10 of Ki per item, same order as input.
1. CC(C)(C)[C@H](NC(=O)c1nn(Cc2ccc(C#N)cc2F)c2c(F)cccc12)C(=O)NC1CC1 [Example 373]
2. CC(C)(C)[C@H](NC(=O)c1nn(Cc2ccc(F)cc2)c2ccccc12)C(=O)N[C@H]1CCC[C@@H]1O [Example 279]
3. CC(C)(C)[C@H](NC(=O)c1nn(Cc2ccc(C#N)cc2)c2c(F)cccc12)C(=O)NC[C@H](O)CO [Example 113]

Response:
[1.16, 1.73, 0.89]

// for each compound in input: emit log10 of Ki
1. CC(C)(C)[C@H](NC(=O)c1nn(Cc2ccc(C#N)cc2)c2ccccc12)C(=O)NC[C@H](O)CO [Example 384]
2. CC(C)(C)[C@H](NC(=O)c1nn(Cc2ccc(F)cc2)c2ccccc12)C(=O)NC[C@H](O)[C@@H](O)CO [Example 517]
3. CC(C)(C)[C@H](NC(=O)c1nn(Cc2ccc(F)cc2)c2ccccc12)C(=O)NC[C@@H](O)[C@H](O)CO [Example 516]
4. CC(C)(C)[C@H](NC(=O)c1nn(Cc2ccc(F)cc2)c2ccccc12)C(=O)N1CCC[C@H]1C(N)=O [Example 292]
5. CC(C)(C)[C@H](NC(=O)c1nn(Cc2ccc(C#N)cc2)c2cc(F)ccc12)C(=O)NC[C@H](O)CO [Example 298]
6. CC(C)(C)[C@H](NC(=O)c1nn(Cc2ccc(F)cc2)c2ccccc12)C(=O)N[C@@H]1CNC(=O)C1 [Example 459]
7. CC(C)NC(=O)[C@@H](NC(=O)c1nn(Cc2ccc(C#N)cc2)c2ccccc12)C(C)(C)C [Example 405]

Response:
2.46
1.20
0.63
0.72
2.26
0.44
1.68

----------
Consider the following compounds; for each one, report its pKi.
system_under_test: human CB1 receptor (Homo sapiens, UniProt P21554)
measurement_protocol: Human CB1 receptor binding, [3H] CP-55,940 displacement on HEK cell membranes
Design: expressed in transfected cells; host or cells: HEK cells, doxycycline-induced; membrane preparation
condition_set: CB1 Ki
One number for each entry, as −log10 of the molar value.

State recorded pKi for all listed compounds.
1. CC(C)(C)[C@H](NC(=O)c1nn(Cc2ccc(F)cc2)c2ccccc12)C(=O)N1CCC(F)C1 (stereo partly shown)
2. CC(C)(C)C(NC(=O)c1nn(Cc2ccc(C#N)cc2)c2c(Cl)cccc12)C(=O)NC1CC1 (stereo not shown)
3. CC(C)(C)C(NC(=O)c1nn(Cc2ccc(F)cc2)c2c(Cl)cccc12)C(=O)NCCO (stereo not shown)
4. CC(C)(C)[C@H](NC(=O)c1nn(Cc2ccc(C#N)cc2F)c2c(F)c(F)ccc12)C(=O)NC1CC1

Response:
8.76
8.92
9.59
8.13

----------
system_under_test: UniProtKB P21554
measurement_protocol: Human CB1 receptor binding, [3H] CP-55,940 displacement on HEK cell membranes
Design: expressed in transfected cells; host or cells: HEK cells, doxycycline-induced; membrane preparation
condition_set: CB1 Ki
readout_label: Ki (nM)
Answers are plain numbers, in nM.

Previously resolved entries follow.
[
  {
    "compound": "CC(C)(C)[C@H](NC(=O)c1nn(Cc2ccc(F)cc2)c2ccccc12)C(=O)NC1CCCOC1 (some centres unmarked) [Example 339]",
    "endpoint_unit": "nM",
    "quantitative_result": 5.36
  },
  {
    "compound": "CC(C)(C)[C@H](NC(=O)c1nn(Cc2ccc(F)cc2)c2ccccc12)C(=O)N1CC(F)(F)C1 [Example 330]",
    "endpoint_unit": "nM",
    "quantitative_result": 0.2
  },
  {
    "compound": "CC(C)NC(=O)CNC(=O)[C@@H](NC(=O)c1nn(Cc2ccc(F)cc2)c2ccccc12)C(C)(C)C [Example 493]",
    "endpoint_unit": "nM",
    "quantitative_result": 0.95
  }
]

Batch lookup, Ki per entry.
1. Cc1cc(NC(=O)[C@@H](NC(=O)c2nn(Cc3ccc(F)cc3)c3ccccc23)C(C)(C)C)sn1 [Example 514]
2. CC(C)(C)C(NC(=O)c1nn(Cc2ccc(F)cc2)c2ccccc12)C(=O)NC1CC1 (centres unmarked) [Example 80]
3. CC(C)(C)C(NC(=O)c1nn(Cc2ccc(F)cc2)c2ccccc12)C(=O)NCCNC(N)=O (centres unmarked) [Example 85]

Response:
[3.03, 0.21, 1.72]

Report Ki for each item below.
1. CC(C)(C)C(NC(=O)c1nn(Cc2ccc(F)cc2)c2ccccc12)C(=O)NCC(N)=O (centres unmarked) [Example 82]
2. CC(C)(C)[C@H](NC(=O)c1nn(Cc2ccc(C#N)cc2F)c2c(F)cccc12)C(=O)NCCS(C)(=O)=O [Example 370]
3. CC(C)(C)[C@H](NC(=O)c1nn(Cc2ccc(F)cc2)c2ccc(Cl)cc12)C(=O)NCCS(C)(=O)=O [Example 433]
4. CC(C)(C)[C@H](NC(=O)c1nn(Cc2ccc(F)cc2)c2ccccc12)C(=O)NCCC#N [Example 271]
5. CC(C)(C)C(NC(=O)c1nn(Cc2ccc(F)cc2)c2ccccc12)C(=O)NCC(O)CO (centres unmarked) [Example 79]
6. CC(C)(C)[C@H](NC(=O)c1nn(Cc2ccc(F)cc2)c2ccc(Cl)cc12)C(=O)NC1CCC1 [Example 438]
7. COc1cc(C#N)ccc1Cn1nc(C(=O)N[C@H](C(N)=O)C(C)(C)C)c2ccccc21 [Example 385]
8. CC(C)(C)[C@H](NC(=O)c1nn(Cc2ccc(C#N)cc2)c2c(F)cccc12)C(=O)N1CC(O)C1 [Example 214]

Response:
[1.12, 132, 35.5, 2.91, 2.02, 10.9, 166, 3.87]

For every record below, what is its Ki?
1. Cc1nnc(CNC(=O)[C@@H](NC(=O)c2nn(Cc3ccc(C#N)cc3F)c3c(F)cccc23)C(C)(C)C)o1 [Example 372]
2. CC(C)(C)C(NC(=O)c1nn(Cc2ccc(C#N)cc2F)c2ccccc12)C(=O)NCC(O)CO (centres unmarked) [Example 89]

Response:
[22.6, 63.4]
